target: T1, recombinant human HGF (hepatocyte growth factor) (human, UniProt P14210 32-728); test: receptor competition ELISA: DARPin premixed with human HGF, binding of HGF to coated c-Met Fc chimera detected with anti-HGF antibody
T1 construct: Covalently immobilized on the chip for SPR; also called scatter factor
T1 sequence (P14210 32-728 limits assumed): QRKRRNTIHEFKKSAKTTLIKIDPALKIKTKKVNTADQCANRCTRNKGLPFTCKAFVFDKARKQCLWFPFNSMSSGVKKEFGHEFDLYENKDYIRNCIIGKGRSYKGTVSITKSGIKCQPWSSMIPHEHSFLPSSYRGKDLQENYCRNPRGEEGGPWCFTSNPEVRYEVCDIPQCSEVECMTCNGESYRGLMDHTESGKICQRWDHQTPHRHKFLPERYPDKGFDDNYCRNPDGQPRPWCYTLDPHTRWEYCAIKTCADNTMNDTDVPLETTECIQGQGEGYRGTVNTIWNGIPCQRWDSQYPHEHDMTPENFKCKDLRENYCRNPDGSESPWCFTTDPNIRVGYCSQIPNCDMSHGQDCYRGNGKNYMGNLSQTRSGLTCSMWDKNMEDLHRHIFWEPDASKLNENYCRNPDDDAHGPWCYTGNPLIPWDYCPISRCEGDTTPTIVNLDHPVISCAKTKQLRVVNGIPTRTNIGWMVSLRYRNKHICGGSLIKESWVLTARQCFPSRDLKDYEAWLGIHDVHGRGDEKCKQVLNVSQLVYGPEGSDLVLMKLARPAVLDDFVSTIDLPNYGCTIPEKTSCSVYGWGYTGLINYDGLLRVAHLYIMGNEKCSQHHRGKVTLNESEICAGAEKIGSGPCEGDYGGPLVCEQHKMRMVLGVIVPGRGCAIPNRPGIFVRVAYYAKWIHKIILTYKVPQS
pIC50: −log10 of the molar value.
reported.metric: pIC50

{"binder": "DARPin #51 (designed binder) MRGSHHHHHHGSDLGKKLLEAARAGQDDEVRILLKAGADVNAKDRYGDTPLHLAADIGHLEIVEVLLKAGADVNAEDYFGNTPLHLAASYGHLEIVEVLLKAGADVNAKDDYGNTPLHLAANTGHLEIVEVLLKAGADVNAQDKSGKTPADLAADAGHEDIAEVLQKLN", "pIC50": 9.21}

[a] DARPin #60 (designed binder) MRGSHHHHHHGSDLGMKLLEAARAGQDDEVRILMANGADVNAHDTWGLTPLHLAAFHGHQEIVEVLLKHGADVNAQDFYGKTPLHLAALRGHLEIVEVLLKYGADVNAQDQFGKTAFDISIDNGNEDLAEILQKLN
[b] DARPin #57 (designed binder) MRGSHHHHHHGSDLGKKLLEAARAGQDDEVRILMANGADVNAHDYLGLTPLHLAASDGHLEIVEVLLKHGADVNAYDYNGLTPLHLAANNGHLEIVEVLLKYGADVNAFDVAGYTPLHLAAYFGHLEIVEVLLKYGADVNAQDKFGKTAFDISIDNGNEDLAEILQKLN
Request: Hey, which is lower on measured pIC50, a or b ? Reply briefly: the label of your chosen item.
Result: b
(b: 8.77, a: 9.02)

Where do these numbers come from? They come from patent US20160251404A1.
